- Tested Target: UniProt:O15151
- Sequence (O15151 1-490): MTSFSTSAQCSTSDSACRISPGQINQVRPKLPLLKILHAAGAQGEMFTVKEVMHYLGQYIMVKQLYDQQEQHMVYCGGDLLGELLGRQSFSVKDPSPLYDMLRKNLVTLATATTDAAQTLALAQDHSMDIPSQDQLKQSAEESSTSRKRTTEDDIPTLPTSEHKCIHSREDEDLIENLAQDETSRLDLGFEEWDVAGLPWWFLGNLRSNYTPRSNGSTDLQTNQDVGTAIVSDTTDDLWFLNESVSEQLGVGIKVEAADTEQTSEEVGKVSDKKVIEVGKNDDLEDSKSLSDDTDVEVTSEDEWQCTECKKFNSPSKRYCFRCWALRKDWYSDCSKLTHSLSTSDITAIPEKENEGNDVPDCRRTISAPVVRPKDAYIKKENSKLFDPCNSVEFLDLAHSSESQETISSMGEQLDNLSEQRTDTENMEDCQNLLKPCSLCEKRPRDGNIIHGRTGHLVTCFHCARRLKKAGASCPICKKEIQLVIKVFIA
- Assay Comment: fluorescence polarization assay, p53-Mdm4
- Assay type: binding
- Measurement Context: FP, resynthesized and purified by flash chromatography
Parameter Measured: Ki (µM)
Give the number; µM is assumed, so skip it.

# Ki (compound: O=C(CN(Cc1ccc(Cl)cc1)C(=O)c1cc2ccccc2[nH]1)NC1CCCCC1 ) is 5.5
